test system: L1210 leukemia ip in BDF1 mice, survival T/C; assay: NCI In Vivo Anticancer Drug Screen. Data for tumor model L1210 Leukemia (intraperitoneal) in B6D2F1 (BDF1) mice; details: endpoint: mean survival time; dose: 200.0 mg/kg/injection; schedule: Q01DX009 (ip); vehicle: gum acacia; higher = longer survival
Toxic doses and inconclusive results are not listed.
Recorded T/C by entry
value_kind: T/C

# line_notation, observed
measured = [
    ("CC(=O)CC(=O)C(F)(F)F.CC(=O)CC(=O)C(F)(F)F.CC(=O)CC(=O)C(F)(F)F.CC(=O)CC(=O)C(F)(F)F.[Th]", "101 % of control"),
    ("CCCCNc1ccc(C(=O)O)cc1", "92 % of control"),
    ("O=C(Nc1ccc(Cl)c(C(F)(F)F)c1)OCc1ccco1", "100 % of control"),
    ("CCCCNC(=O)Nc1ccc(Nc2ccccc2)cc1", "108 % of control"),
    ("CCOC(=O)c1cc(C)[nH]c1C", "95 % of control"),
]

###

test system: L1210 leukemia ip in BDF1 mice, survival T/C; test: NCI In Vivo Anticancer Drug Screen. Data for tumor model L1210 Leukemia (intraperitoneal) in B6D2F1 (BDF1) mice; conditions: endpoint: mean survival time; dose: 25.0 mg/kg/injection; schedule: Q04DX003 (ip); vehicle: saline with Tween-80; higher = longer survival
Toxic doses and inconclusive results are not listed.
Reported T/C by item:
value_kind: T/C

# molecule, target_of_assay, observed
rows = [
    ("CCCCCCOCC(O)CNCCN (stereo unspecified)", "L1210 leukemia ip in BDF1 mice, survival T/C", "96 % of control"),
    ("CCCCN(C)CC#N", "L1210 leukemia ip in BDF1 mice, survival T/C", "94 % of control"),
    ("O=C(C(=O)N1CC1)c1c[nH]c2ccccc12", "L1210 leukemia ip in BDF1 mice, survival T/C", "95 % of control"),
    ("CC1CC(C)(C)N=C(C(Cc2ccccc2)CC(O)c2ccccc2)O1 (stereo unspecified)", "L1210 leukemia ip in BDF1 mice, survival T/C", "94 % of control"),
    ("COC(C)CCC(=O)O.[Ag] (stereo unspecified)", "L1210 leukemia ip in BDF1 mice, survival T/C", "96 % of control"),
    ("C=C(Br)CNC(=O)OC", "L1210 leukemia ip in BDF1 mice, survival T/C", "100 % of control"),
]

###

# maps each entry to its T/C
test system: L1210 leukemia ip in BDF1 mice, survival T/C; test: NCI In Vivo Anticancer Drug Screen. Data for tumor model L1210 Leukemia (intraperitoneal) in B6D2F1 (BDF1) mice; conditions: endpoint: mean survival time; dose: 200.0 mg/kg/injection; schedule: Q01DX001 (ip); vehicle: Klucel (hydroxypropylcellulose) (HPC); higher = longer survival
Toxic doses and inconclusive results are not listed.

# compound, T/C
measured = [
    ("O=C(Nc1cccc(C(F)(F)F)c1)Nc1ccc(Cl)cc1Cl", "91 % of control"),
    ("CC(C)C(C)/C=C\\C(C)C1CCC2C3=CCC4CC(O)CCC4(C)C3CCC21C (stereo unspecified)", "97 % of control"),
    ("O=C(NCCCl)NC1c2cc(Cl)ccc2-c2c(Cl)cc(Cl)cc21 (stereo unspecified)", "96 % of control"),
    ("Cc1ccc(S(=O)(=O)NNS(=O)(=O)c2ccc(C)cc2)cc1", "109 % of control"),
    ("C/C=C/CC/C(=N\\Nc1ccc([N+](=O)[O-])cc1[N+](=O)[O-])c1ccccc1", "96 % of control"),
    ("Cc1cc(N=Nc2ccc([N+](=O)[O-])cc2)ccc1O", "95 % of control"),
    ("COc1ccc(N=CC(=O)c2ccc(C)cc2)c([N+](=O)[O-])c1", "104 % of control"),
    ("Cc1nccnc1S(=O)c1ccc(Br)cc1 (stereo unspecified)", "95 % of control"),
    ("COC1=NS(=O)(=O)N=C(N(C)C)O1", "105 % of control"),
    ("CSc1ncc2c(=O)n(C)[nH]c2n1", "92 % of control"),
    ("c1ccc(-c2cc3ccccc3[nH]2)cc1", "96 % of control"),
    ("CC1(C)C/C(=C\\c2cccc([N+](=O)[O-])c2)C(=O)c2ccccc21", "93 % of control"),
    ("CN1CCC2(CC1)C(=O)N(c1ccccc1)C(=O)C2c1ccccc1 (stereo unspecified)", "98 % of control"),
    ("COC(=O)CCCCCCCCCC(=O)OC", "101 % of control"),
    ("Clc1ccc(/C=N\\N2CCCCCC2)cc1", "100 % of control"),
    ("Nc1ccc2oc(=O)c(C(=O)O)cc2c1", "89 % of control"),
    ("COc1ccc(NC(C)=O)cc1S(=O)(=O)F", "88 % of control"),
    ("CC(=N/Nc1ccccc1)/C(C)=N/Nc1ccccc1", "91 % of control"),
    ("CC(=O)Nc1ncc(/C=C/C=C/c2ccc([N+](=O)[O-])cc2)c(NC(C)=O)n1", "86 % of control"),
    ("O=C(COc1ccc(Cl)cc1)Nc1cc(Cl)ccc1Cl", "95 % of control"),
    ("COC(=O)NS(=O)(=O)c1ccco1", "98 % of control"),
]
